Test system: SF-268 CNS
Procedure details: NCI tumour cell line growth inhibition, 48 h
Measurement kind: TGI

- O=c1[nH]/c(=C/c2ccc(OCc3ccccc3)cn2)c(=O)[nH]/c1=C/c1cccnc1: > 35 µM
- Cc1nn(C(=O)CC(=O)Nc2ccccc2Cl)c(C)c1N=Nc1ccccc1Cl: > 100 µM
- N#C/C(=C/NC(=S)Nc1ccc(S(N)(=O)=O)cc1)C(N)=O: > 100 µM
- OB1OCc2ccccc21: > 100 µM
- O=C1CSC(c2ccc(Cl)cc2)N1c1ccc(-n2c(-c3ccccc3)nc3ccccc3c2=O)cc1 (stereo not given): > 100 µM

* * *

Reported GI50 values follow for various compounds
Tested on: TK-10 renal
Procedure details: NCI tumour cell line growth inhibition, 48 h
Measurement kind: GI50

* N#Cc1c(-c2ccc(Cl)cc2)n([O-])c2ccccc2[n+]1=O | 11.7 µM
* CN(C)CCCn1c2c(c3ccncc3c1=O)C(=O)c1ccccc1-2 | 1.98 µM
* C#Cc1cccc(NC(=O)Nc2cccc(NC(=O)CCl)c2)c1 | 38 µM
* CCS(=O)(=O)Nc1ccc(Oc2ccc(F)cc2F)c(-c2cn(C)c(=O)c3[nH]ccc23)c1 | < 0.01 µM
* COc1cc2c(cc1Nc1nc(Nc3ccsc3C(N)=O)c3cc[nH]c3n1)N(C(=O)CN(C)C)CCC2 | 1.46 µM
* Cn1c([N+](=O)[O-])cnc1/C=C1\Oc2ccc(Cl)cc2C1=O | 1.04 µM
* COc1ccc(-c2nccn2-c2cc(OC)c(OC)c(OC)c2)cc1 | 10.7 µM
* Oc1c(Br)cc(Br)c2cccnc12 | 14.2 µM
* COc1ccc(/C=C2\CC(C)CC3C2=NN(C(C)=O)C3c2ccc(OC)c(OC)c2)cc1OC (centres undefined) | 65 µM

This collection of values is drawn from PubChem BioAssay (NCI).
